Origin of measurements: patent US20180280525A1

molecular target: T1, human MT1-MMP hemopexin domain (human, UniProt P50281 319-511); assay: FP competition, Human/cyno MT1-MMP hemopexin domain
T1 construct: range 319-511; Secreted from HEK293 cells as soluble N-terminally His6-tagged protein; also called MT1-MMP hemopexin-like repeats; MMP14
OBSERVED PROPERTY: pKd
One number for each entry, as −log10 of the molar value.

Q: Quick one: pKd of GXACYNEFGCEDFYDIC (not fully specified; Sar x10 in the spacer; 3 Cys cyclised with TBMB, also called G-Sar10-A-(17-69-07) (non-stabilised with spacer)) [17-69-07-N219] ?
Ans: 9.09
